Where do these numbers come from? They come from patent US20090311237A1.

Assay: Pharmacokinetics of ZA in pig serum after IV or SC infusion with or without rHuPH20 (LC-MS-MS, non-compartmental analysis)
Assay type: in vivo
Conditions: female, Yorkshire, pig, serum, sc, […], pig 70; SC ZA […], 10 mL over 1.6 min, no rHuPH20; read-out: CL/F (converted)
PROPERTY LABEL: CL/F (mL/min/kg)
Answers are plain numbers, in mL/min/kg.

Looking up O=P(O)(O)C(O)(Cn1ccnc1)P(=O)(O)O , I see its CL/F listed as 7.69

----------
Test: Phase 1 Stage 1 clinical pharmacokinetics of SC ZA co-administered with rHuPH20
Type: in vivo, human
Details: human, serum, sc, […], AUC (0-24 h), Subj 1; ZA […] SC; inf 0.554 hr; PH20 23928 U
PROPERTY LABEL: AUC(0-t) (µg·h/mL)
Numbers only, in µg·h/mL.

Kindly note the recorded AUC(0-t) for O=P(O)(O)C(O)(Cn1ccnc1)P(=O)(O)O , which is 0.0294
